Experiment Summary: Plasma Piroxicam after gavage, combined administration with calcium threonate (Example 12)
Type: in vivo, Wistar derived albino rats
Assay Conditions: rat, plasma, po, 0.6 mg/kg, 10 hours after dosing; group average; read-out: Plasma Piroxicam Concentration, average (X)
Attribute Measured: concentration at 10 h (µg/mL)
// return numeric value only (unit: µg/mL, not printed)

Looking up CN1C(C(=O)Nc2ccccn2)=C(O)c2ccccc2S1(=O)=O , I see its concentration at 10 h listed as 1.8

====

Experiment Summary: Plasma Piroxicam after gavage, combined administration with calcium threonate (Example 12)
Format: in vivo, Wistar derived albino rats
Assay Conditions: rat, plasma, po, 0.6 mg/kg, 10 hours after dosing; individual rat; read-out: Plasma Piroxicam Concentration
Attribute Measured: concentration at 10 h (ng/mL)
// return numeric value only (unit: ng/mL, not printed)

Looking up CN1C(C(=O)Nc2ccccn2)=C(O)c2ccccc2S1(=O)=O , I see its concentration at 10 h listed as 2000

====

Experiment Summary: Plasma Piroxicam after gavage, combined administration with calcium threonate (Example 12)
Format: in vivo, Wistar derived albino rats
Assay Conditions: rat, plasma, po, 0.6 mg/kg, 4 hours after dosing; piroxicam 0.6 mg/kg (AM: plus threonate 15 mg/kg); individual rat; read-out: Plasma Piroxicam Concentration
Attribute Measured: concentration at 4 h
The reply should consist of the numeric value with the unit placed after it.

Looking up CN1C(C(=O)Nc2ccccn2)=C(O)c2ccccc2S1(=O)=O , I see its concentration at 4 h listed as 2200 ng/mL

====

Experiment Summary: Plasma Piroxicam after gavage, combined administration with calcium threonate (Example 12)
Assay type: in vivo, Wistar derived albino rats
Assay Conditions: rat, plasma, po, 0.6 mg/kg, 8 hours after dosing; group average; read-out: Plasma Piroxicam Concentration, average (X)
Attribute Measured: concentration at 8 h (ng/mL)
// return numeric value only (unit: ng/mL, not printed)

Looking up CN1C(C(=O)Nc2ccccn2)=C(O)c2ccccc2S1(=O)=O , I see its concentration at 8 h listed as 1800

====

Experiment Summary: Plasma Piroxicam after gavage, 3-day calcium threonate pretreatment (Example 13)
Assay type: in vivo, Wistar derived Albino rats
Assay Conditions: rat, po, 0.6 mg/kg, 10 hrs post-dosing on day 4, group average, read-out: Piroxicam Plasma Concentration, average (X)
Method: Ten Wistar derived Albino rats, male (420-456 gms), were acclimated for seven days prior to beginning the study. During this period the rats were fed Purina(R) Rodent Chow, watered ad lib and housed in self-flushing stainless-steel cages. The rats were randomly assigned to two groups of five each. Group A rats were gavaged daily for 3 days with 1.0 ml distilled water prior to beginning the study. […] Selective HPLC was used to analyze Piroxicam. The data was analyzed statistically by the SAS procedure. […]
Attribute Measured: concentration at 10 h (ng/mL)
// return numeric value only (unit: ng/mL, not printed)

Looking up CN1C(C(=O)Nc2ccccn2)=C(O)c2ccccc2S1(=O)=O , I see its concentration at 10 h listed as 900

====

Experiment Summary: Plasma Piroxicam after gavage, combined administration with calcium threonate (Example 12)
Type: in vivo, Wistar derived albino rats
Assay Conditions: rat, plasma, po, 0.6 mg/kg, 4 hours after dosing; group average; read-out: Plasma Piroxicam Concentration, average (X)
Attribute Measured: concentration at 4 h (ng/mL)
// return numeric value only (unit: ng/mL, not printed)

Looking up CN1C(C(=O)Nc2ccccn2)=C(O)c2ccccc2S1(=O)=O , I see its concentration at 4 h listed as 1800
